measurement target: μ receptor (Rattus norvegicus, UniProt P33535)
Construct: the brains (minus the cerebellum) were removed, placed in ice-cold saline solution, and then homogenized; from tissue; host or cells: rat brain (minus cerebellum) membranes
Sequence (P33535 whole entry): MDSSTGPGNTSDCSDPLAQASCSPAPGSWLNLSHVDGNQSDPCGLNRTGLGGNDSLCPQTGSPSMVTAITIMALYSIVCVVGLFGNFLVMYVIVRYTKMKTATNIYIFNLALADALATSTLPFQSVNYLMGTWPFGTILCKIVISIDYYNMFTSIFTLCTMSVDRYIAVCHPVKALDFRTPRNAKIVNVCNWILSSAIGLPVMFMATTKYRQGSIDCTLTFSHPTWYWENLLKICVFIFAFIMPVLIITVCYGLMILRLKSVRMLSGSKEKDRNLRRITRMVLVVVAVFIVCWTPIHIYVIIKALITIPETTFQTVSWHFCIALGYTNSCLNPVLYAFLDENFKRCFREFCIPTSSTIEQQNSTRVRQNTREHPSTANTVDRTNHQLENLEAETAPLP
experiment notes: Radioligand binding assay, μ opioid receptor ((3H)-DAMGO, brain membranes)
Square brackets hold non-standard residues; d marks the D form. Peptide text beside a SMILES is read from it.
outcome measure: pKi
Just so you know, pKi here is -log10 of the concentration in molar units; reply with that number alone.

For reference, reported pKi for C[C@@H](NC(=O)[C@@H](N)Cc1ccc(O)cc1)C(=O)N[C@H](Cc1ccccc1)C(=O)N[C@@H](Cc1ccccc1)C(N)=O [BCH1775, H-Tyr-D-Ala-D-Phe-Phe-NH2] (H-Y[dA][dF]F-NH2) stands at 7.59

* * *

measurement target: μ receptor (Rattus norvegicus, UniProt P33535)
Construct: the brains (minus the cerebellum) were removed, placed in ice-cold saline solution, and then homogenized; from tissue; host or cells: rat brain (minus cerebellum) membranes
experiment notes: Radioligand binding assay, μ opioid receptor ((3H)-DAMGO, brain membranes)
conditions: Table 2; read-out: Binding Assay Kiμ
Square brackets hold non-standard residues; d marks the D form. Peptide text beside a SMILES is read from it.
outcome measure: Ki (nM)
The figure you give is taken to be in nM; do not add the unit.

For reference, reported Ki for C[C@@H](NC(=O)[C@@H](N)Cc1ccc(O)cc1)C(=O)N[C@@H](Cc1ccccc1)C(=O)N[C@@H](Cc1ccccc1)C(N)=O [BCH1774, H-Tyr-D-Ala-Phe-Phe-NH2] (H-Y[dA]FF-NH2) stands at 1.53

* * *

measurement target: δ receptor (Rattus norvegicus, UniProt P33533)
Sequence (P33533 whole entry): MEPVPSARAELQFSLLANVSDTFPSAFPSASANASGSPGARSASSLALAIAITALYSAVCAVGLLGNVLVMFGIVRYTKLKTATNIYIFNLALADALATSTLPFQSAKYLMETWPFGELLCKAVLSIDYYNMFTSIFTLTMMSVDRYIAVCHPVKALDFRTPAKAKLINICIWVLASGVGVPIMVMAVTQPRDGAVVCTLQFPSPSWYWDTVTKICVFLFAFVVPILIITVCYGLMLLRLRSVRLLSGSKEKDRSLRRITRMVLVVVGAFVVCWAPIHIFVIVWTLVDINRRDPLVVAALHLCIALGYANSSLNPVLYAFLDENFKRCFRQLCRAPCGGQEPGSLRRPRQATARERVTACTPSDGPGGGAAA
experiment notes: biochemical
Square brackets hold non-standard residues; d marks the D form. Peptide text beside a SMILES is read from it. Phe(4-F) = N[C@@H](Cc1ccc(F)cc1)C(=O)O
outcome measure: pKi
Just so you know, pKi here is -log10 of the concentration in molar units; reply with that number alone.

| molecule | measurement target | pKi |
| --- | --- | --- |
| C[C@@H](NC(=O)[C@@H](N)Cc1ccc(O)cc1)C(=O)N[C@@H](Cc1ccc(F)cc1)C(=O)N[C@@H](Cc1ccc(F)cc1)C(N)=O [Compound #1B, H-Tyr-D-Ala-Phe(pF)-Phe(pF)-NH2] (H-Y[dA][Phe(4-F)][Phe(4-F)]-NH2) | δ receptor (Rattus norvegicus, UniProt P33533) | 6.70 |
| N=C(N)NCCC[C@@H](NC(=O)[C@@H](N)Cc1ccc(O)cc1)C(=O)N[C@@H](Cc1ccc(F)cc1)C(=O)N[C@@H](Cc1ccccc1)C(N)=O [Compound #2C, H-Tyr-D-Arg-Phe(pF)-Phe-NH2] (H-Y[dR][Phe(4-F)]F-NH2) | δ receptor (Rattus norvegicus, UniProt P33533) | 6.02 |

Turning now to a further molecule:
For reference, reported pKi for C[C@@H](NC(=O)[C@@H](N)Cc1ccc(O)cc1)C(=O)N[C@@H](Cc1ccc(F)cc1)C(=O)N[C@@H](Cc1ccccc1)C(N)=O [Compound #1C, H-Tyr-D-Ala-Phe(pF)-Phe-NH2] (H-Y[dA][Phe(4-F)]F-NH2) stands at 6.70

* * *

measurement target: μ receptor (Rattus norvegicus)
Construct: the brains (minus the cerebellum) were removed, placed in ice-cold saline solution, and then homogenized; from tissue; host or cells: rat brain (minus cerebellum) membranes
experiment notes: Radioligand binding assay, μ opioid receptor ((3H)-DAMGO, brain membranes)
conditions: Ki^μ, Table 1
Square brackets hold non-standard residues; d marks the D form. Peptide text beside a SMILES is read from it. * marks the point of attachment. NMeF = CN[C@@H](Cc1ccccc1)C(=O)O; Tic = O=C(O)[C@@H]1Cc2ccccc2CN1; Bn = c1ccc(C*)cc1
outcome measure: pKi
Just so you know, pKi here is -log10 of the concentration in molar units; reply with that number alone.

Use these answered entries as a reference point.
| molecule | pKi |
| --- | --- |
| N=C(N)NCCC[C@@H](NC(=O)[C@@H](N)Cc1ccc(O)cc1)C(=O)N[C@@H](Cc1ccccc1)C(=O)N[C@@H](CSCc1ccccc1)C(N)=O [BCH3241, H-Tyr-D-Arg-Phe-Cys(Bzl)NH2] (H-Y[dR]FC(Bn)-NH2) | 8.16 |
| C[C@@H](NC(=O)[C@@H](N)Cc1ccc(O)cc1)C(=O)N[C@@H](Cc1ccccc1)C(=O)N(C)[C@@H](Cc1ccccc1)C(N)=O [BCH1781, H-Tyr-D-Ala-Phe-Phe(NMe)-NH2] (H-Y[dA]F[NMeF]-NH2) | 7.65 |

Readout pKi for C[C@@H](NC(=O)[C@@H](N)Cc1ccc(O)cc1)C(=O)N[C@@H](Cc1ccccc1)C(=O)N1Cc2ccccc2C[C@H]1C(N)=O [BCH1780, H-Tyr-D-Ala-Phe-Tic-NH2] (H-Y[dA]F[Tic]-NH2) , test system μ receptor (Rattus norvegicus), was 7.90

Readout pKi for NC(=O)[C@H](Cc1ccccc1)NC(=O)[C@H](Cc1ccccc1)NC(=O)[C@@H](Cc1ccccc1)NC(=O)[C@@H](N)Cc1ccc(O)cc1 [BCH753, H-Tyr-D-Phe-Phe-Phe-NH2] (H-Y[dF]FF-NH2) , test system μ receptor (Rattus norvegicus), was 8.44

* * *

measurement target: δ receptor (Rattus norvegicus)
experiment notes: biochemical
conditions: read-out: Binding Assay Kiδ; Table 2
Square brackets hold non-standard residues; d marks the D form. Peptide text beside a SMILES is read from it.
outcome measure: Ki (µM)
The figure you give is taken to be in µM; do not add the unit.

Readout Ki for C[C@@H](NC(=O)[C@@H](N)Cc1ccc(O)cc1)C(=O)N[C@@H](Cc1ccccc1)C(=O)N[C@@H](Cc1ccccc1)C(N)=O [BCH1774, H-Tyr-D-Ala-Phe-Phe-NH2] (H-Y[dA]FF-NH2) , test system δ receptor (Rattus norvegicus), was 0.626
